Below, each of the binders is paired with its reported SPOT peptide array binding signal intensity value.
molecular target: ScCyk3; test: SPOT peptide array binding signal intensity (averaged, normalized) (arbitrary units (background-subtracted, floor 0; scale differs between SH3 domains)); higher = stronger binding of the SH3 domain to the peptide
Please reply with the number alone, leaving off any unit.

Would you please look over these solved cases?
## Input Which SPOT peptide array binding signal intensity is listed for VNFRRIPTGPDSPPT ?
## Output 1.5

## Input Next record, please: KRKRFNLLLPKPYLT
## Output 58

For the next question, use this binder.
## Input Which SPOT peptide array binding signal intensity is listed for RLPAPPPPPRRGPAP ?
## Output 5
